experiment: sensitizers of A549 cells to miR-34 induction, primary screen, imaging, A549 dox-inducible miR-34, nuclei and caspase counts (AID 1347080); conditions: A549 miR-34 inducible, Hoechst nuclei count, 48 h; measured here: total cells without miR-34 induction
Binary call on cell count: yes from 10000 upward, no beneath that.

compound	classLabel
CCCCCCCCCCCCCCCCO	no
CCCCc1cc2ccccc2c(OCCN(C)C)n1	no
COc1ccccc1O	yes
COc1ccc2cc([C@H](C)CO)ccc2c1	yes

Challenge: Quick check: does `Cc1occc(=O)c1O` have cell count greater than or equal to 10000?
Response given: no

Challenge: Repeat with `COc1cc(NS(C)(=O)=O)ccc1Nc1c2ccccc2nc2ccccc12`
Response given: no

Challenge: Entry `Cc1c(-c2ccc(O)cc2)n(Cc2ccc(OCCN3CCCCCC3)cc2)c2ccc(O)cc12` please
Response given: no

Challenge: `CCC(=O)c1ccc2c(c1)N(CCCN(C)C)c1ccccc1S2` , same question.
Response given: no

Challenge: Next up: `COc1cc(/C=C/C(N)=O)cc(OC)c1OC`
Response given: no

###

biological target: Mitogen-activated protein kinase 7 (Homo sapiens) (UniProt Q13164); test: ERK5 transactivation activators in reporter cells, primary screen, cell-based, HTS (AID 1508626); details: HeLa Gal4-ERK5 transactivation, 18 h, at 5 µM, stronger effect = higher value;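 further: luciferase driven by Gal4-ERK5 fusion binding five Gal4 sites before minimal TATA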
Sequence (Q13164 whole entry, looked up, the tested form may be a part): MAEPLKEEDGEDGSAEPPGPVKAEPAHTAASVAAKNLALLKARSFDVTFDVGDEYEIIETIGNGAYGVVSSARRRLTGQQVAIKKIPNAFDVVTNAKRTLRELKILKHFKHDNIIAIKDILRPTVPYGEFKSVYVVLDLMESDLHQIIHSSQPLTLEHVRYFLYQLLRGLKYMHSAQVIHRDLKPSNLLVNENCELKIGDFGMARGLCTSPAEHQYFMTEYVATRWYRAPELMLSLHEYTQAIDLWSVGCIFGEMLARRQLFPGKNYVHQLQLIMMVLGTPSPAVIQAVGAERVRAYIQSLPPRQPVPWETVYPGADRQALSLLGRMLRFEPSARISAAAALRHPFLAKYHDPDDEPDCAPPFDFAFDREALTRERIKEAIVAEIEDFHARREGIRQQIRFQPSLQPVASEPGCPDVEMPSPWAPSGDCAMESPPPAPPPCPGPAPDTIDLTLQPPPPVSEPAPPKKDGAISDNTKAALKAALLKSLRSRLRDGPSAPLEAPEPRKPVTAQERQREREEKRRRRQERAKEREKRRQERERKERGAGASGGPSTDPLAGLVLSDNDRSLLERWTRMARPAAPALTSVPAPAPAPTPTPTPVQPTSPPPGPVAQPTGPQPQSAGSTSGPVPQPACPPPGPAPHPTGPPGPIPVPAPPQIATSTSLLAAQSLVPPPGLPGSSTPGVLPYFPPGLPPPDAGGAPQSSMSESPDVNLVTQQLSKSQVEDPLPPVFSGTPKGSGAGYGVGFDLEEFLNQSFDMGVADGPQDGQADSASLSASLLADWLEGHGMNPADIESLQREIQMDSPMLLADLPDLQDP
The source made the active and inactive calls.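 How the source made its calls: active means luciferase signal above three times the same-plate solvent-only control wells; inactive means the rest.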
metric: luciferase signal

Sample records with luciferase signal:
molecule	targetUnderTest	luciferase signal
O=C(CCCN1CCC(O)(c2ccc(Cl)cc2)CC1)c1ccc(F)cc1	Mitogen-activated protein kinase 7 (Homo sapiens) (UniProt Q13164)	40 AU (inactive)
COc1ccc2ccc(=O)oc2c1CC=C(C)C	Mitogen-activated protein kinase 7 (Homo sapiens) (UniProt Q13164)	36 AU (inactive)
CC1CCC(C(C)C)C(OC(=O)c2ccccc2)C1 (centres undefined)	Mitogen-activated protein kinase 7 (Homo sapiens) (UniProt Q13164)	48 AU (inactive)

Challenge: Please state recorded luciferase signal (tested on Mitogen-activated protein kinase 7 (Homo sapiens) (UniProt Q13164)) of `Cc1cc(NS(=O)(=O)c2ccc(N)cc2)no1`
Response given: 64 AU (inactive)

Challenge: Moving on to `COc1ccc2c(c1OC)C(=O)O[C@@H]2[C@H]1c2c(cc3c(c2OC)OCO3)CCN1C`
Response given: 44 AU (inactive)

Challenge: Entry to check: `COc1ccc(-c2cc(=O)c3ccccc3o2)cc1OC`
Response given: 76 AU (inactive)

Challenge: // query: `CC(=O)c1ccc2c(c1)N(CCCN(C)C)c1ccccc1S2`
Response given: 32 AU (inactive)

Challenge: And the next one, `O=C(O)c1cc(O)c2c(c1)[C@H]([C@H]1c3cc(C(=O)O)cc(O)c3C(=O)c3c(O[C@@H]4O[C@H](CO)[C@@H](O)[C@H](O)[C@H]4O)cccc31)c1cccc(O[C@@H]3O[C@H](CO)[C@@H](O)[C@H](O)[C@H]3O)c1C2=O` ?
Response given: 76 AU (inactive)

Challenge: Again, but for `COc1cc(O)c2c(=O)cc(-c3ccc(OC)c(-c4c(O)cc(O)c5c(=O)cc(-c6ccc(O)cc6)oc45)c3)oc2c1`
Response given: 24 AU (inactive)

###

assay: inhibitors of mitochondrial cytochrome c release, biochemical, purified mitochondria (AID 1603); settings: stronger effect = lower value;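 further: mouse liver mitochondria challenged with calcium chloride; signal normalized to the plate average as 100%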
Peptide text beside a SMILES is read from it.
# thresholds on cytochrome c release ratio define classes: low (below 0.8), middle (0.8 to below 1), high (1 or more)

Consider the following illustrative entries.
compound	classLabel
COc1cc2ccc(=O)oc2cc1O	low
C[n+]1c2cc(N)ccc2cc2ccc(N)cc21	middle
Cc1cc(C(C)(C)CC(C)(C)C)ccc1OCCOCC[N+](C)(C)Cc1ccccc1	high
CC(=O)N1CCN(c2ccc(OCC3CO[C@](Cn4ccnc4)(c4ccc(Cl)cc4Cl)O3)cc2)CC1 (stereo not given in full)	high
NCCCCC(N)C(=O)NC(Cc1ccc(O)cc1)C(=O)NC(CCCCN)C(=O)O (stereo not drawn) (H-Lys-Tyr-Lys-OH; configuration not given here)	middle

Challenge: # classify by cytochrome c release ratio band: `O=C(O)CN(CC(=O)O)Cc1cc2c(-c3ccccc3C(=O)O)c3cc(CN(CC(=O)O)CC(=O)O)c(=O)cc-3oc2cc1O`
Response given: middle

Challenge: Next: `Cc1cc(/C=C/c2ccc3cc(N(C)C)ccc3[n+]2C)c(C)n1-c1ccccc1`
Response given: low

Challenge: Also, `Clc1cc(Cl)c(OCC#CI)cc1Cl` please.
Response given: high

Challenge: Check CC12CCC3c4ccc(OCc5ccccc5)cc4CCC3C1C[C@@H](O)[C@@H]2O (stereo not given in full) too.
Response given: high

Challenge: Okay, and `CC(C)(C)CC(C)(C)c1ccc(OCCOCC[N+](C)(C)Cc2ccccc2)cc1` ?
Response given: high

Challenge: Follow-up item: `NC(=O)c1cccc(N)c1`
Response given: high

Challenge: Would you kindly repeat that for C=NC(C(=O)NC1C(=O)N2C1SC(C)(C)C2C(=O)O)c1ccccc1 (stereo not given) ?
Response given: low

###

Listing of recorded inhibition by entry.
molecular target: 6-phosphogluconate dehydrogenase, decarboxylating (Homo sapiens); assay: 6PGD enzyme inhibitors, primary screen, biochemical, human, recombinant enzyme, NADPH absorbance (AID 1159550); settings: recombinant 6PGD, NADPH absorbance 341 nm; at 10 µM; stronger effect = higher value
Calls of active or inactive are those of the source.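 How the source made its calls: active means at least 20% inhibition of 6-phosphogluconate dehydrogenase activity; inactive means the rest.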

Answered examples (3):
molecule	inhibition
COc1ccc(CC(=O)c2ccc(O)cc2O)cc1	17.5% (inactive)
C[C@@H]1[C@H]2[C@H](O[C@@H]3O[C@H](CO)[C@@H](O)[C@H](O)[C@H]3O)OC=C(C(=O)O)[C@H]2C[C@@H]1O	16.7% (inactive)
CC(=O)CC(=O)CCC(=O)O	9.16% (inactive)

Challenge: Missing value: inhibition, 6-phosphogluconate dehydrogenase, decarboxylating (Homo sapiens), entry C=C1C(C2(C)C(OC(C)=O)CC(=O)OC(C)(COC(C)=O)C2CC(=O)OC)C(OC=O)C(OC(=O)C(O)C(C)CC)C2(C)C(c3ccoc3)CC(=O)C12O (stereo not given) . Fill in?
Response given: 7.27% (inactive)

Challenge: Proceed to C=CCCCCCCCCCCC/C=C/C(O)COC(C)=O (stereo not given)
Response given: -11.7% (inactive)

Challenge: Also `COC(=O)C1=CO[C@@H](O[C@@H]2O[C@H](CO)[C@@H](O)[C@H](O)[C@H]2O)[C@@H]2[C@@H](C)[C@@H](O)C[C@H]12` , if possible.
Response given: 6.61% (inactive)

Challenge: Try this molecule too: `O=C1C=C(O)c2ccccc2C1=O`
Response given: 5.16% (inactive)

Challenge: Item: `Cc1cc(=O)oc2cc(O)c(O)cc12`
Response given: 8.55% (inactive)

Challenge: Repeat for the following molecule: `CCCCC(=O)O[C@H]1CC[C@H]2[C@@H]3CCc4cc(O)ccc4[C@H]3CC[C@]12C`
Response given: 6.29% (inactive)

Challenge: Note, next up: O=C(O)CCC(=O)OCC(NC(=O)C(Cl)Cl)C(O)c1ccc([N+](=O)[O-])cc1 (stereo not given)
Response given: 1.37% (inactive)

###

experiment: differential killing of epithelial or mesenchymal cells, primary screen, imaging, PC-3E GFP, TEM4-18 mCherry, co-culture (AID 1345086); conditions: imaging cell counts, measured here: epithelial PC-3E GFP cell survival, at 1 µM;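 further: cells exposed to compound for 72 h before imaging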
metric: normalised cell number
Kindly provide the number alone.

The cases that follow already have their normalised cell number on record.
compound	metric	measValue
CC(S)C(=O)NCC(=O)O (configuration not stated)	normalised cell number	1.06
CC(=O)Oc1cc(C(C)C)c(OCCN(C)C)cc1C	normalised cell number	0.81
COC1=CC(=O)C=C(OC)C1=O	normalised cell number	0.92

Consider the record given below.
Challenge: Reported normalised cell number, compound `O=C1Cc2cc(CCN3CCN(c4nsc5ccccc45)CC3)c(Cl)cc2N1` : ____
Response given: 1.17

###

assay: ovarian cancer cell viability with rucaparib, profiling panel, oncology-focused library, rucaparib conditional (AID 1508598); conditions: patient-derived ovarian cancer cells, CellTiter-Glo viability, 144 h; at 1.25 µM; OCI-C5x cells; without rucaparib; stronger effect = lower value
Measured viability by item
Numbers only; they are read as %.

smilesStructure	viability (%)
Nc1ncn([C@H]2C[C@H](O)[C@@H](CO)O2)c(=O)n1	80
Cc1cc(O)c2c(c1)C(=O)c1cccc(O)c1C2=O	118
O=C(CCCCCCC(=O)Nc1ccccc1)NO	52.8
Nc1nc(Cl)nc2c1ncn2[C@@H]1O[C@H](CO)[C@@H](O)[C@@H]1F	23.9
COc1cc2ncnc(Nc3ccc(F)c(Cl)c3)c2cc1OCCCN1CCOCC1	94.5

Lab note: next compound to report on.
Challenge: Any idea what its viability is? The compound is `COc1cc(Nc2c(C#N)cnc3cc(OCCCN4CCN(C)CC4)c(OC)cc23)c(Cl)cc1Cl`
Response given: 108
